The reported numbers originate from ChEMBL document CHEMBL1125557.

Below: a set of entries, each annotated with reported ED50.
- System: Rattus norvegicus
- measurement description: Compound was tested in vivo for antagonistic activity for the 50% inhibition of AII pressor response in male rats after intravenous administration
- Type: functional
Enter your answer as a number in µmol/kg; do not include the unit.

# example entries with known answers
CCCCC1=NC(Cl)=C(C(=O)OCC)C(C)N1Cc1ccc(-c2ccccc2-c2nnn[n-]2)cc1.[K+] (centres undefined)	1.65
CCCCC1=NC(C)(C)C(C(=O)OCC)=C(Cl)N1Cc1ccc(-c2ccccc2-c2nn[nH]n2)cc1	2.4
CCCCc1nc(Cl)c(CO)n1Cc1ccc(-c2ccccc2-c2nnn[n-]2)cc1.[K+]	1.8

We next turn to a different compound, shown below.
## Input What ED50 value was documented for this compound, CCCCC1=NC(Cl)=C(C(=O)O)C(C)N1Cc1ccc(-c2ccccc2-c2nn[nH]n2)cc1 (centres undefined) ?
## Output 0.076
